- target.desc: T1, human IL-17A (construct not specified) (human, UniProt Q16552 24-155, limits assumed)
- T1 construct: also called huIL-17A
- T1 sequence: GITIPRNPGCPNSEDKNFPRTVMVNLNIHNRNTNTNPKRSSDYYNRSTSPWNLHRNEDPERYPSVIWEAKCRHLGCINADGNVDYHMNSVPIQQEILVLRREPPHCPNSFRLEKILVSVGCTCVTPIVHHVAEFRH
- measurement.description: ELISA, coated huIL-17A, crude Fab extract
endpoint: Classic ELISA (normalized to XAB1 Fab) (fold)
Give bare numbers, in fold.

MB461 (Fab, V domains shown, Fab variant of XAB1) VH: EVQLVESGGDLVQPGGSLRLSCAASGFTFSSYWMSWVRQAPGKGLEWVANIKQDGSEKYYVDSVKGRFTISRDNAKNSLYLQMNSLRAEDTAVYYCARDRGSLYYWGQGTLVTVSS VL: AIQLTQSPSSLSASVGDRVTITCRPSQGIYWTLAWYQQKPGKAPKLLIYDASSLENGVPSRFSGSGSGTDFTLTISSLQPEDFATYYCQQFNSYPLTFGGGTKVEIK : 2.9
MB433 (Fab, V domains shown, Fab variant of XAB1) VH: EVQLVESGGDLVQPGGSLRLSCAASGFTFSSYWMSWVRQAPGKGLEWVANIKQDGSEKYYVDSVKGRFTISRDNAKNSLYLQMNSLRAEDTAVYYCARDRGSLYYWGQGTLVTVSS VL: AIQLTQSPSSLSASVGDRVTITCRPSQGIYWGLAWYQQKPGKAPKLLIYDASSLENGVPSRFSGSGSGTDFTLTISSLQPEDFATYYCQQFNSYPLTFGGGTKVEIK : 2.3
MB458 (Fab, V domains shown, Fab variant of XAB1) VH: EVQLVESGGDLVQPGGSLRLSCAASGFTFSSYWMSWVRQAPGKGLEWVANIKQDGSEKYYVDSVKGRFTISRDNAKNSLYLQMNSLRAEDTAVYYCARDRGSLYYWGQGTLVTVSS VL: AIQLTQSPSSLSASVGDRVTITCRPSQGIWYQLAWYQQKPGKAPKLLIYDASSLENGVPSRFSGSGSGTDFTLTISSLQPEDFATYYCQQFNSYPLTFGGGTKVEIK : 2.7
MB453 (Fab, V domains shown, Fab variant of XAB1) VH: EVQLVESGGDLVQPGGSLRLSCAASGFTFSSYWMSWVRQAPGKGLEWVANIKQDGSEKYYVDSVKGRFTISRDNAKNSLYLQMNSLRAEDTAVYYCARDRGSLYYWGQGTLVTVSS VL: AIQLTQSPSSLSASVGDRVTITCRPSQGIVFWLAWYQQKPGKAPKLLIYDASSLENGVPSRFSGSGSGTDFTLTISSLQPEDFATYYCQQFNSYPLTFGGGTKVEIK : 2.7

Inquiry: // lookup Classic ELISA (normalized to XAB1 Fab) for MB464 (Fab, V domains shown, Fab variant of XAB1) VH: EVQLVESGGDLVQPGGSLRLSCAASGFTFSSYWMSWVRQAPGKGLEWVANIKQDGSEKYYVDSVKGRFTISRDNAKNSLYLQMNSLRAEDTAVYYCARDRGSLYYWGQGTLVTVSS VL: AIQLTQSPSSLSASVGDRVTITCRPSQGIIYQLAWYQQKPGKAPKLLIYDASSLENGVPSRFSGSGSGTDFTLTISSLQPEDFATYYCQQFNSYPLTFGGGTKVEIK
Reply text: 2.7
